target: Prothrombin (Homo sapiens)
Measured Parameter: IC50 (µM)

chemical_string=O=C(Nc1ccc(OS(=O)(=O)O)cc1)c1cccc(N2C(=O)c3ccc(C(=O)Nc4ccc(OS(=O)(=O)O)cc4)cc3C2=O)c1 scale_unit=µM reported_value=286
